ASSAY TARGET: T1, monomeric cynomolgus monkey CSF1R ectodomain protein (cynomolgus monkey, UniProt P07333 20-517 (human entry))
T1 construct: also called monomeric cyno CSF1R; Cyno CSF1R
T1 chain: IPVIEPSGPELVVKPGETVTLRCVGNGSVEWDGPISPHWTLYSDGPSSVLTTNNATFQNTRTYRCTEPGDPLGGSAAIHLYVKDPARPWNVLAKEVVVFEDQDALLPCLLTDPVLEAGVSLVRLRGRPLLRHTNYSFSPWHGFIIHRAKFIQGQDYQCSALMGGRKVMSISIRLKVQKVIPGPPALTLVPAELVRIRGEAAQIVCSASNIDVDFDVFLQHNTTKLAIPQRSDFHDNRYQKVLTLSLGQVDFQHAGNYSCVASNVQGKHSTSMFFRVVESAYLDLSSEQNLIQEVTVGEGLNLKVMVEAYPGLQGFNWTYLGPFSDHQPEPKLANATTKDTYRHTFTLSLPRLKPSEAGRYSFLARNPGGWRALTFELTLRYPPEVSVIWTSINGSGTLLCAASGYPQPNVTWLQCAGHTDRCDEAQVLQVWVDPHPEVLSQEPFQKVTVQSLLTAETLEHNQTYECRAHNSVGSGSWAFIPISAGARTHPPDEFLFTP
EXPERIMENT DESCRIPTION: SPR Biacore, IgG captured, monomeric CSF1R analyte
For each entry below, report its kon value.
Record the result as a number with its unit.

Measured kon, MH21 (antibody, human IgG4, V domains shown, Deimmunized MH5 derivative, human IgG4(S228P)/Ckappa IgG) VH: QVQLVQSGAEVKKPGSSVKVSCKASGYTFSSSYMIWVRQAPGQGLEWMGDINPYNGGANYAQKFQGRVTITADESTSTAYMELSSLRSEDTAVYYCAREGPYFSNLYVMDYWGQGTLVTVSS VL: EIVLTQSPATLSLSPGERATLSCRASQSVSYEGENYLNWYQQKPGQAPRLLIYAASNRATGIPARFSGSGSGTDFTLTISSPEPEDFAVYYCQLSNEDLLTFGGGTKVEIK : 746000 M⁻¹ s⁻¹

Memo: MH17 (antibody, human IgG4, V domains shown, Deimmunized MH5 derivative, human IgG4(S228P)/Ckappa IgG) VH: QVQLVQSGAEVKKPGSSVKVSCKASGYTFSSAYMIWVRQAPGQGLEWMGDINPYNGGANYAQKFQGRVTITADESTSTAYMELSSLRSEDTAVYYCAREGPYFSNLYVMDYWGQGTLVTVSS VL: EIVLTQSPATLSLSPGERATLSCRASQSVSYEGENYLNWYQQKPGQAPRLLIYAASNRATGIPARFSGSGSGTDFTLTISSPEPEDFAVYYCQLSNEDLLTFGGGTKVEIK , reported kon: 683000 M⁻¹ s⁻¹

Value of kon reported for the binder MH11 (antibody, human IgG4, V domains shown, Deimmunized MH5 derivative, human IgG4(S228P)/Ckappa IgG) VH: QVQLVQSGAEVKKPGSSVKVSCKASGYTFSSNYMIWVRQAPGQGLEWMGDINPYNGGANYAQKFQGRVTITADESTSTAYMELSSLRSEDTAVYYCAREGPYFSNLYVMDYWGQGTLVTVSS VL: EIVLTQSPATLSLSPGERATLSCRASQSVSYEGENYLNWYQQKPGQAPRAAIYAASNRATGIPARFSGSGSGTDFTLTISSPEPEDFAVYYCQLSNEDLLTFGGGTKVEIK is 802000 M⁻¹ s⁻¹

The recorded kon for MH33 (antibody, human IgG4, V domains shown, Deimmunized MH5 derivative, human IgG4(S228P)/Ckappa IgG) VH: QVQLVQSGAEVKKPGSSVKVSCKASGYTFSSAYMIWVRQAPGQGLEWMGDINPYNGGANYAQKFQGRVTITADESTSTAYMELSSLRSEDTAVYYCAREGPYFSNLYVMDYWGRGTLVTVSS VL: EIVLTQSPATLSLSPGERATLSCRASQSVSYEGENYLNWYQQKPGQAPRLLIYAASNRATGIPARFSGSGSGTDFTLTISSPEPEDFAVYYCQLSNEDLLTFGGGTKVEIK is 660000 M⁻¹ s⁻¹

So for MH32 (antibody, human IgG4, V domains shown, Deimmunized MH5 derivative, human IgG4(S228P)/Ckappa IgG; also called MN32) VH: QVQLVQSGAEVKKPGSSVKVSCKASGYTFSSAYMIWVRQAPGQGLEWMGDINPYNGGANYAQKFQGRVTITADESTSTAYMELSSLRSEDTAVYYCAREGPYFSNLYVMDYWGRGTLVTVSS VL: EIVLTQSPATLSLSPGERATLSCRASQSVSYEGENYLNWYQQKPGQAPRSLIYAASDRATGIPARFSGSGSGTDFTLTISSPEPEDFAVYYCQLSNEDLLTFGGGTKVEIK , the logged kon turned out to be 1.05e+06 M⁻¹ s⁻¹

Sourced from patent US20210301026A1
